Entries and their measured Ratio IC50 follow.
Species: Rattus norvegicus
assay-summary: Selectivity index, ratio of IC50 for rat MAO-A to IC50 for rat MAO-B
Would you mind answering with just the numeric figure?

Use these answered entries as a reference point.
CNCc1cc(=O)oc2cc(OCc3cccc(Cl)c3)ccc12.CS(=O)(=O)O 457
C[C@H](Nc1cc(=O)oc2cc(OCc3ccccc3)ccc12)C(N)=O 147
NC(=O)[C@@H]1CCCN1Cc1cc(=O)oc2cc(OCc3ccccc3)ccc12 92
CNCc1cc(=O)oc2cc(OCc3ccc4c(c3)OCO4)ccc12 270
N#CCc1cc(=O)oc2cc(OCc3cccc(Cl)c3)ccc12 29
NCCc1cc(=O)oc2cc(OCc3cccc(Cl)c3)ccc12 127
NNC(=O)Cc1cc(=O)oc2cc(OCc3cccc(Cl)c3)ccc12 28

Now take the following compound into account.
Query: Determine from records and report Ratio IC50 for `CNCCc1cc(=O)oc2cc(OCc3cccc(Cl)c3)ccc12`
Result: 247
